assay-target: full-length human His-tagged BTK (Homo sapiens)
Construct: 6 nM of full-length human His-tagged BTK (Life Technologies cat #PV3587); His; purchased Life Technologies PV3587
protocol-notes: BTK HTRF assay (Cisbio KinEASE-TK)
Assay type: biochemical
condition: 6 nM BTK, 15 min preincubation at 28° C., 1 uM TK substrate-biotin, 30 uM ATP
measured-metric: IC50 (nM)

{"columns": ["molecule", "IC50 / nM"],
 "data": [
  ["CC#CC(=O)N1CCN(c2nc(-c3ccc(Br)cc3)c(C(N)=O)s2)CC1 [Example 30]", 73],
  ["CC#CC(=O)N1CCN(c2nc(-c3ccc(Oc4ccccc4)cc3)c(C(N)=O)s2)CC1C (stereo not shown) [Example 25]", 1],
  ["C=CC(=O)N[C@@H]1CCCN(c2nc(-c3ccc(Oc4ccccc4)cc3)c(C(N)=O)s2)C1 [Example 5]", 13]
]}

[a] CC#CC(=O)N1CC2(CCN(c3nc(-c4ccc(Oc5ccccc5)cc4)c(C(N)=O)s3)C2)C1 [Example 9]
[b] C=CC(=O)NC[C@@H]1CCCN1c1nc(-c2ccc(Oc3ccccc3)cc2)c(C(N)=O)s1 [Example 35]
Inquiry: Of a and b , whose reported IC50 is the larger number? Select an item and report its label.
Reply text: b

====

assay-target: full-length human His-tagged BTK (Homo sapiens, UniProt Q06187)
Construct: 6 nM of full-length human His-tagged BTK (Life Technologies cat #PV3587); His; purchased Life Technologies PV3587
Sequence (Q06187 whole entry): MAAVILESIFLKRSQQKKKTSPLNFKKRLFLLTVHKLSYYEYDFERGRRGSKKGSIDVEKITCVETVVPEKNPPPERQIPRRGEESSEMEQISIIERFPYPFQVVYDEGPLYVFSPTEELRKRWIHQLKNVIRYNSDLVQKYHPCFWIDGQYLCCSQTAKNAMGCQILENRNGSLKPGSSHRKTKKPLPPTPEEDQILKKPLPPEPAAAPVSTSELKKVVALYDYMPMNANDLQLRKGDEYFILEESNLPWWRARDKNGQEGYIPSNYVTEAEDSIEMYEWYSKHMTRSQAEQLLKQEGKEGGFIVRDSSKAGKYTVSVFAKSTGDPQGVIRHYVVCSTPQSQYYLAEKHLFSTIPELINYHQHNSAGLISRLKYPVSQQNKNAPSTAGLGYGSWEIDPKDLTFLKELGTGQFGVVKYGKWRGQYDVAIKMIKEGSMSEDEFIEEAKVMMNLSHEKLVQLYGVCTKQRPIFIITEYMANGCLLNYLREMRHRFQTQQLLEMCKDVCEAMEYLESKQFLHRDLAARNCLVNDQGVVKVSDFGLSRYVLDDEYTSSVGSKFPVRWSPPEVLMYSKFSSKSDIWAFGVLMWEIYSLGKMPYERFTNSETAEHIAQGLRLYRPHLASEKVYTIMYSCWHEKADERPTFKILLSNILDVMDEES
protocol-notes: BTK HTRF assay (Cisbio KinEASE-TK)
Type: biochemical
condition: 6 nM BTK, 15 min preincubation at 28° C., 1 uM TK substrate-biotin, 30 uM ATP
measured-metric: IC50 (nM)

{"columns": ["mol-smiles", "IC50 [nM]"],
 "data": [
  ["C/C=C/C(=O)N1CCN(c2nc(-c3ccc(Oc4ccccc4)nc3)c(C(N)=O)s2)CC1", 700]
]}

[1] CN(C)C/C=C/C(=O)NC[C@H]1CCCN1c1nc(-c2ccc(Oc3ccccc3)cc2)c(C(N)=O)s1
[2] C=CC(=O)N1CCN(c2nc(-c3ccc(Oc4ccccc4)cc3)c(C(N)=O)s2)CC1
Inquiry: Please let me know which one, 1 or 2 , has a lower measured IC50 value. Give the label of your selection.
Reply text: 2
(2: 0.3 nM, 1: 560 nM)

[A] CC#CC(=O)N1CCN(c2nc(-c3ccc(Oc4ccccc4)cn3)c(C(N)=O)s2)CC1
[B] C=CC(=O)N1CCC2(C1)CN(c1nc(-c3ccc(Oc4ccccc4)cc3)c(C(N)=O)s1)C2
Inquiry: From the recorded data, which exceeds the other in IC50: A or B ? Indicate your choice by writing its label.
Reply text: A

[1] C=CC(=O)N1CC2(CCN(c3nc(-c4ccc(Oc5ccccc5)cc4)c(C(N)=O)s3)C2)C1
[2] NC(=O)c1sc(N2CCN(C(=O)C#CCN3CCOCC3)CC2)nc1-c1ccc(Oc2ccccc2)cc1
Inquiry: Given 1 and given 2 , which shows the smaller recorded IC50? // return label of chosen record
Reply text: 2
(2: 0.7 nM, 1: 5.6 nM)

====

assay-target: full-length human His-tagged BTK (Homo sapiens, UniProt Q06187)
Construct: 6 nM of full-length human His-tagged BTK (Life Technologies cat #PV3587); His; purchased Life Technologies PV3587
protocol-notes: BTK HTRF assay (Cisbio KinEASE-TK)
Type: biochemical
condition: 6 nM BTK, 15 min preincubation at 28° C., 1 uM TK substrate-biotin, 30 uM ATP
Protocol: An HTRF assay (Cisbio KinEASE-TK cat #62TK0PEC) was performed to quantitate the ability of test compounds to inhibit BTK mediated phosphorylation of substrate. […] Phospohrylation was detected by adding 62.5 nM Streptavidin-XL665 and TK-Antibody Cryptate diluted 1:100 in HTRF detection buffer (Cisbio cat #62SDBRDF) and incubated for 60 minutes at RT. The plate was read on an Envision plate reader and the fluoresence is measured at 620 nm (cryptate) and 665 nm (XL665). […]
measured-metric: IC50 (nM)

// worked examples, IC50 included
{"columns": ["mol-smiles", "assay-target", "IC50, nM"],
 "data": [
  ["CN(C)C/C=C/C(=O)N1CCN(c2nc(-c3ccc(Oc4ccccc4)cc3)c(C(N)=O)s2)CC1", "full-length human His-tagged BTK (Homo sapiens, UniProt Q06187)", 2],
  ["CC#CC(=O)NC[C@H]1CCCN1c1nc(-c2ccc(Oc3ccccc3)cc2)c(C(N)=O)s1", "full-length human His-tagged BTK (Homo sapiens, UniProt Q06187)", 30]
]}

[A] CC#CC(=O)N1CCN(c2nc(-c3ccc(Oc4ccccc4)nc3)c(C(N)=O)s2)CC1
[B] C=CC(=O)N1CCN(c2nc(-c3ccc(Oc4ccccc4)cc3)c(C(N)=O)s2)[C@@H](C)C1
[C] CC#CC(=O)N(C)C1CCN(c2nc(-c3ccc(Oc4ccccc4)cc3)c(C(N)=O)s2)CC1
[D] C=CC(=O)N1CC2(C1)CN(c1nc(-c3ccc(Oc4ccccc4)cc3)c(C(N)=O)s1)C2
Inquiry: Number of compounds to sort: 4. Sort criterion: IC50, ascending. Write the labels, ordered according to the request.
Reply text: B, C, D, A
